Collected growth inhibition values appear next to each entry.
# assay summary: NCI Yeast Anticancer Drug Screen. Data for the cln2 rad14 strain (AID 165);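 also: 0% = growth equal to vehicle treated cultures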
# run parameters: S. cerevisiae cln2 rad14 strain, at 50.0 µM, active compounds read high
Compounds without any hit were thinned out: in the full panel of roughly 79,000, 15% have a hit.
Numbers only; they are read as %.

Answered cases to consult:
O=C(Oc1ccc(C(=O)c2ccc(C(=O)c3ccc(OC(=O)c4cccc(Br)c4)cc3)cc2)cc1)c1cccc(Br)c1; -2.35
CCN(CC)C(=O)CC(C)(C)O; -0.9
CCCCCCCc1ccc(N=Cc2ccc(OCCC)cc2)cc1; 99
CC1=C(C(=O)NCc2ccccc2)C(/C=C/c2ccccc2)C(C(=O)NCc2ccccc2)=C(C)N1; -22.1
CC(=O)/C(=N\N=C(N)N)c1ccccc1; 19.8

So for CC(C)CCCC(C)C1CCC2C3CC=C4CC(OC(=O)C56C=CC(=O)C5C5C=CC6CC5)CCC4(C)C3CCC12C (configuration not stated) , the logged growth inhibition turned out to be 2.25

So for CCCCN(CCCC)CC(C)O (configuration not stated) , the logged growth inhibition turned out to be 16.9

====

Collected growth inhibition values appear next to each entry.
# assay summary: NCI Yeast Anticancer Drug Screen. Data for the sgs1 mgt1 strain (AID 161);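 also: 0% = growth of cultures given vehicle only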
# run parameters: S. cerevisiae sgs1 mgt1 strain, at 50.0 µM, active compounds read high
This is part of a sample that, as a whole, favours compounds with a hit. Of some 79,000 tested, about 15% had one in any assay.
Numbers only; they are read as %.

Answered cases to consult:
C/C(=N/NC(=S)Nc1cccc(Cl)c1)c1cccc(/C(C)=N\NC(=S)Nc2cccc(Cl)c2)n1; 62.6
COc1ccc2c(c1OC)CN1CCc3cc4c(cc3C1=C2)OCO4; -9.95
O=C(NC1CCCCC1)c1ccccc1Cl; -15.3
O=C1NCCN1CCCl; -5.15
CCC(c1ccccc1)c1cc(C(C)(C)C)cc(C(C)(C)C)c1O (centres undefined); -15.4

So for COc1ccc2c(ccc3nc(C)[nH]c(=O)c32)c1 , the logged growth inhibition turned out to be 2.95

So for COc1cc(C2C(C(C)=O)=C(C)Oc3cc4c(cc32)OCO4)cc(OC)c1O (centres undefined) , the logged growth inhibition turned out to be -0.25

So for CCOC(=O)Cn1c(=O)c(-c2ccccc2NC(C)=O)nc2ccccc21 , the logged growth inhibition turned out to be -7.9

So for NC(=O)Oc1cccc(OC(N)=O)c1 , the logged growth inhibition turned out to be 13.9

====

Collected growth inhibition values appear next to each entry.
# assay summary: NCI Yeast Anticancer Drug Screen. Data for the rad50 strain (AID 155);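 also: 0% = growth of vehicle-only cultures of the same strain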
# run parameters: S. cerevisiae rad50 strain growth inhibition; at 50.0 µM; active compounds read high
About 79,000 compounds went through this panel and 15% of them were active in at least one assay; those are over-represented in the sample as a whole.
Numbers only; they are read as %.

Cc1ccc(CO)cc1; 13.9

So for CCc1ccccc1NC(=O)CC1NC(=O)CS1 (configuration not stated) , the logged growth inhibition turned out to be -8.95

So for CC(=O)/C(=N\N=C(N)N)c1ccccc1 , the logged growth inhibition turned out to be -25.4

So for CC(C)(C)SC1C(O)C(CO)OC1n1ccc(Nc2ccccc2)nc1=O (configuration not stated) , the logged growth inhibition turned out to be -17.9

So for CC(=O)Oc1ccc(/C=C/c2ccccn2)cc1 , the logged growth inhibition turned out to be 6.6

So for O=[N+]([O-])c1ccc(-c2csc3nc(-c4ccccc4)nn23)cc1 , the logged growth inhibition turned out to be -0.5

So for CCCCCCCC/C(C=O)=C\c1ccc(C)cc1 , the logged growth inhibition turned out to be 53

The origin of these recorded values is PubChem BioAssay (NCI).
